Tested on: MOLT-4 leukemia
Experiment summary: NCI tumour cell line growth inhibition, 48 h
Quantity measured: TGI

Molecule: Cc1ccc(O)c(C(=O)/C=C/c2ccccc2)c1
Target or system: MOLT-4 leukemia
Quantity measured: TGI
Result: > 100 µM
//
Molecule: OCC1OC(n2cnc3cc(Cl)c(Cl)cc32)C(O)C1O (stereo unspecified)
Target or system: MOLT-4 leukemia
Quantity measured: TGI
Result: > 41.3 µM
//
Molecule: CN(C)c1ccc(/C=C(\C#N)C(=O)c2ccccc2)cc1Br
Target or system: MOLT-4 leukemia
Quantity measured: TGI
Result: > 100 µM
//
Molecule: O=C(Nc1ccn(C2CCC(COC(c3ccccc3)(c3ccccc3)c3ccccc3)O2)c(=O)n1)c1ccccc1 (stereo unspecified)
Target or system: MOLT-4 leukemia
Quantity measured: TGI
Result: 5.16 µM
//
Molecule: Cc1cccc(Nc2ncc(-c3ccccc3)o2)c1
Target or system: MOLT-4 leukemia
Quantity measured: TGI
Result: > 25 µM
//
Molecule: Nc1ccc2ncc(NCc3ccc(F)cc3)nc2c1
Target or system: MOLT-4 leukemia
Quantity measured: TGI
Result: > 100 µM
